- target system: human mAChR M4 (Homo sapiens, UniProt P08173)
- Construct: expressed in transfected cells
- Sequence (P08173 1-479): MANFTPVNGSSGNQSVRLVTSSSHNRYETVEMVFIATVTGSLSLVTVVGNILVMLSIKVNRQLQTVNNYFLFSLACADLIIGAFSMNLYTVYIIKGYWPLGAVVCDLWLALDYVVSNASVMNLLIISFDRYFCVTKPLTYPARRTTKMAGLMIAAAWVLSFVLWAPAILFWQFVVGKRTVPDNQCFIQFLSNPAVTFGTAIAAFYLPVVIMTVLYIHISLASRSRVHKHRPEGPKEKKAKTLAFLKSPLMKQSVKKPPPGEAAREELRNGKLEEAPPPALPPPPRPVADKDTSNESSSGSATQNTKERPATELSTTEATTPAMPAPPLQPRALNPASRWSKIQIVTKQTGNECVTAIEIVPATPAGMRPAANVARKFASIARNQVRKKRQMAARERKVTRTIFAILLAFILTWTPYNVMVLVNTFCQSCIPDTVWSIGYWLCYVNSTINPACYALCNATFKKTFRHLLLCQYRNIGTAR
- assay info: mAChR M4 cell-based functional assay (calcium mobilization, CHO-K1 hM4-Gqi5 cells)
- details: CHO-K1, % ACh maximum at 30 μM; human M4
Overview of reported Emax at 30 µM across a group of molecules:
Number in %, nothing else.

The examples below pair each entry with its known result.
molecule	readout name	reported measurement
Cc1cc(C#N)cnc1N1CCc2ncc(-c3cnn(C4CCC4)c3)cc2C1	Emax at 30 µM	91
Cc1c(C#N)nnc(N2CCc3ncc(Nc4cccnc4F)cc3C2)c1C	Emax at 30 µM	82
Cc1c(C#N)nnc(N2CCc3ncc(-c4ccns4)cc3C2)c1C	Emax at 30 µM	86
Cc1c(C#N)nnc(N2CCc3ncc(Nc4ccccc4C#N)cc3C2)c1C	Emax at 30 µM	46
Cc1nc(C(=O)N2CCOCC2)c(C)c(N2CCc3ncc(C(F)(F)F)cc3C2)n1	Emax at 30 µM	25
Cc1cc(C(=O)NCc2nccs2)cnc1N1CCc2ncc(-c3cccnc3F)cc2C1	Emax at 30 µM	89
Cc1cc(C(=O)N2Cc3cccnc3C2)nnc1N1CCc2ncc(N3CCCn4nccc43)cc2C1	Emax at 30 µM	90
Cc1cc(C#N)nnc1N1CCc2ncc(-c3c(C)noc3C)cc2C1	Emax at 30 µM	76
Cc1c(C#N)nnc(N2CCc3ncc(-c4ccc(C5CC5)nc4)cc3C2)c1C	Emax at 30 µM	57
Cc1cc(C#N)cnc1N1CCc2ncc(-c3cnn(-c4ccc(F)cc4)c3)cc2C1	Emax at 30 µM	33

Turning now to a further record.
# molecule Cc1cc(C(=O)N2CCC2)nnc1N1CCc2ncc(-n3cccn3)cc2C1 ; its Emax at 30 µM = 83

====

- target system: human mAChR M4 (Homo sapiens, UniProt P08173)
- Construct: expressed in transfected cells
- assay info: mAChR M4 cell-based functional assay (calcium mobilization, CHO-K1 hM4-Gqi5 cells)
- details: positive allosteric modulator activity, increase in the EC20 acetylcholine response, CHO-K1 hM4-Gqi5 cells; read-out: Human M4 EC50
Below, each entry is listed with its recorded pEC50.
When answering, recall that pEC50 equals minus log10 of the concentration in mol/L, and write that number alone.

The following molecules have reported results that may help.
molecule	reported measurement
Cc1cc(C(=O)N2CCCC2(C)C)nnc1N1CCc2ncc(N3CCCn4nccc43)cc2C1	6.24
Cc1cc(C(=O)NCc2ccccn2)cnc1N1CCc2ncc(-c3cn(C)nc3C)cc2C1	6.25
COc1nc(C)nc(N2CCc3ncc(-c4cn(C)nc4C)cc3C2)c1C	5.93
Cc1c(C#N)nnc(N2CCc3ncc(Nc4ncccc4F)cc3C2)c1C	6.52
Cc1cc2n(n1)CCCN2c1cnc2c(c1)CN(c1ncc(C#N)cc1C)CC2	7.40

Lab book: pEC50 of Cc1cc(C#N)nnc1N1Cc2cc(N3CCOCC3)cnc2C(C)C1 (single isomer, unassigned) [Example 407] noted as 6.21

Record Cc1c(C(=O)NCc2cncs2)nnc(N2CCc3ncc(C(F)(F)F)cc3C2)c1C . Reported pEC50: 7.36

Consider Cc1nn(C)cc1-c1cnc2c(c1)CN(c1nc(C(F)(F)F)nc(Cl)c1C)CC2 . Its measured pEC50 is 6.19

Recorded pEC50 (molecule Cc1cc(C#N)cnc1N1CCc2ncc(-c3cnn(CC(C)C)c3)cc2C1 ): 6.33

Summary for this molecule, Cc1ccccc1OCCOc1cnc2c(c1)CN(c1ncc(C#N)cc1C)CC2 : pEC50 is 5.18

Item: Cc1nn(C)cc1-c1cnc2c(c1)CN(c1nc(Cl)nc3c1COC3)CC2 | pEC50: 5.91

The molecule listed as Cc1cc(C(=O)N2CC3(C2)CC(F)(F)C3)nnc1N1CCc2ncc(-n3cccn3)cc2C1 shows pEC50 equal to 6.47

For reference, reported pEC50 for Cc1cc(C#N)nnc1N1CCc2ncc(Oc3cccc(F)c3F)cc2C1 stands at 6.56

molecule Cc1cc(C(=O)N2CC(F)(F)C2)nnc1N1CCc2ncc(N3CCCn4nccc43)cc2C1 , pEC50 observed: 7.35

What the record says about Cc1ccncc1-c1cnc2c(c1)CN(c1nnc(C#N)c(C)c1C)CC2 : pEC50 is 6.71

The molecule listed as Cc1cncc(-c2cnc3c(c2)CN(c2nnc(C#N)c(C)c2C)CC3)c1 has a reported pEC50 of 6.04

Short answer for Cc1cc(C(=O)N2CC(C)(F)C2)nnc1N1CCc2ncc(Nc3ccnn3C)cc2C1 : pEC50 was 7.19

Each recorded value in this set is attributed to patent US20250230155A1.
